- subject.of.test: T1, mouse Siglec15-his protein (mouse)
- T1 construct: In house made
- T1 chain: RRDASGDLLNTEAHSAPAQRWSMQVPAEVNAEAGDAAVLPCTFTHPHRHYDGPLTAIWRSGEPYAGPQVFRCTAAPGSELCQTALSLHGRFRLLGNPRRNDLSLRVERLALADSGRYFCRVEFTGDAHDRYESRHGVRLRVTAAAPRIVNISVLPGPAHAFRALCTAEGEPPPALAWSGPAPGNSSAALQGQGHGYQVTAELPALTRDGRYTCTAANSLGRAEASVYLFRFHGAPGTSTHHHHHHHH
- measurement.description: SPR Biacore T200, antibody captured by anti-human IgG, antigen as analyte, 1:1 fit
observed.property: kon
Your reply should be a number followed by the unit it is expressed in.

>>> endpoint_result("A2A5C7E8-3 (antibody, human IgG1, kappa, V domains shown, Variant of A2A5C7E8 modified in VH CDR2 (X2 = K)) VH: EVQLVQSGAEVKKPGESLRISCKGSGYSFTTYWISWVRQMPGKGLEWMGLIDPSDSYTNYSPSFKGHVTISTDKSISTAYLQWSSLKASDTAMYYCARGGYYGSEEDYWGQGTLVTVSS VL: EIVLTQSPGTLSLSPGERATLSCRASQSVSSSRLAWFQQKSGQAPRLLIFDASSRATGIPDRFSGSGSGTDFTLTISRLEPEDFAVYYCQQYGSSPRTFGQGTKVEFKR")
"2.24e+06 M⁻¹ s⁻¹"

**Q:** Annotate the binder A2A5C7E8-2 (antibody, human IgG1, kappa, V domains shown, Variant of A2A5C7E8 modified in VH CDR2 (X1 = E)) VH: EVQLVQSGAEVKKPGESLRISCKGSGYSFTTYWISWVRQMPGKGLEWMGLIDPSESYTNYSPSFQGHVTISTDKSISTAYLQWSSLKASDTAMYYCARGGYYGSEEDYWGQGTLVTVSS VL: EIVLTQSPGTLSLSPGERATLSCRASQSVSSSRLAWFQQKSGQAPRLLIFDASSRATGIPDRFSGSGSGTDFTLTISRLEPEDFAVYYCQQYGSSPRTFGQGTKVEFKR with its measured kon.
**A:** 2.63e+06 M⁻¹ s⁻¹

**Q:** Annotate the binder A2A5C7E8 (antibody, V domains shown, Fully human antibody from transgenic mouse hybridoma; also called A2A5C7E8-1) VH: EVQLVQSGAEVKKPGESLRISCKGSGYSFTTYWISWVRQMPGKGLEWMGLIDPSDSYTNYSPSFQGHVTISTDKSISTAYLQWSSLKASDTAMYYCARGGYYGSEEDYWGQGTLVTVSS VL: EIVLTQSPGTLSLSPGERATLSCRASQSVSSSRLAWFQQKSGQAPRLLIFDASSRATGIPDRFSGSGSGTDFTLTISRLEPEDFAVYYCQQYGSSPRTFGQGTKVEFK with its measured kon.
**A:** 2.14e+06 M⁻¹ s⁻¹

**Q:** Annotate the binder anti-Siglec15 benchmark (ch5G12) (antibody, human IgG1, kappa, V domains shown, ch5G12 (US 20190202912A1); also called BM; Siglec15-ch5G9) VH: QVQLQQPGAELVKPGASVKMSCKASGYTFTSYWITWVIQRPGQGLEWIGDIYCGSDTMHYNEKFKNKATLTVDTSSSTAYMQLSSLTSEDSAVYYCARWWDYGSSYDYFDYWGQGTTLTVSS VL: DIKMTQSPSSMYASLGERVTITCKASQDINSYLSWFQQKPGKSPKTLIYRANRLVDGVPSRFSGSGSGQDYSLTISSLEYEDMGIYYCLQYDEFPYTFGGGTKLEIKR with its measured kon.
**A:** 5.47e+06 M⁻¹ s⁻¹
